Provenance of the data: patent US10160748B2

pIC50 listing for selected molecules.
system: UniProt:P01375
Sequence (P01375 77-233 limits assumed): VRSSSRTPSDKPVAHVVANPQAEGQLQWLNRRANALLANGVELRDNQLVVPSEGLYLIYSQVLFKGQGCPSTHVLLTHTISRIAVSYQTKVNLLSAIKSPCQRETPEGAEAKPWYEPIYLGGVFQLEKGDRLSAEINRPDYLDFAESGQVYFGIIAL
assay name: TNFα FP Competitive Binding Assay
experimental setup: FP binding assay; 20 nM TNFα trimer, 1 nM OregonGreen488 probe; read-out: TNF IC50
Procedure: TNFα FP Competitive Binding Assay • 1. […] • 1. […] Prior to reading the assay, the plates are placed in a dark cabinet to equilibrate at rt for one hour. • 9. Background-subtracted fluorescence polarization (mP) is measured using a PerkinElmer Envision plate reader. • 10. […]
pIC50: −log10 of the molar value.

Look over these answered cases.
molecule	readout value
Cc1ccc(OC(F)F)c(Cn2c3cc(-c4cnc(N5CCN(C(=O)[C@H](C)N)[C@@H](C)C5)nc4)ccc3c(=O)n2C)c1	> 6.00
Cn1c(=O)c2ccc(-c3cc(N4CCOCC4)ncc3Cl)cc2n1Cc1ccccc1OC(F)F	< 5.00
Cn1c(=O)c2ccc(-c3cnc(C(C)(C)O)nc3)nc2n1Cc1ccccc1OC(F)F	5.00 to 6.00

Quick one: pIC50 of Cn1c(=O)c2ccc(-c3cnc(N4CCN5C(=O)NCC5C4)nc3)cc2n1Cc1ccccc1OC(F)F (stereo not drawn) ?
> 6.00

Quick one: pIC50 of "COCc1cccc(OC(F)F)c1Cn1c2cc(-c3cnc(N4CCN5C(=O)NC[C@@H]5C4)nc3)ccc2c(=O)n1C" ?
> 6.00

Quick one: pIC50 of Cn1c(=O)c2ccc(-c3cnc(N[C@@H]4CCNC(=O)C4)nc3)cc2n1Cc1cc(CO)ccc1OC(F)F (single isomer, unassigned) ?
> 6.00

Quick one: pIC50 of "Cc1ccc(OC(F)F)c(Cn2c3cc(-c4cnc(C(C)(C)O)nc4)c(F)cc3c(=O)n2C)c1" ?
> 6.00

Quick one: pIC50 of "Cn1c(=O)c2ccc(-c3cnc(C(C)(C)O)nc3)cc2n1Cc1cc(Cn2cncn2)ccc1OC(F)F" ?
> 6.00
